// reported TGI per item
Test system: SNB-75 CNS
assay info: NCI tumour cell line growth inhibition, 48 h
# number only, unit µM dropped from output

compound="CSc1nc2c(c(=O)n1C)N=C(c1ccc(Cl)cc1)CC(c1ccccc1)N2 (centres undefined)" subject_of_test="SNB-75 CNS" result_unit=µM recorded_result=37.2

Now look at this one.
I would be grateful if you could share the reported TGI for "NCCCN(CCCN)CCCNCc1c2ccccc2c(CNCCCN(CCCN)CCCN)c2ccccc12" .
34.3

---

System: HL-60(TB) leukemia
assay info: NCI tumour cell line growth inhibition, 48 h
quantity measured: TGI

Known TGI results, listed for orientation:
compound=N=C1c2nc3n(c2C(=O)c2nc4n(c21)CCCC4)CCCC3 quantity_measured=TGI recorded_result="> 84.3 µM"
compound=CN(NC(=O)CC(=O)NN(C)C(=S)c1ccccc1)C(=S)c1ccccc1 quantity_measured=TGI recorded_result="> 100 µM"
compound=Cc1c(C)c2c(c(N)c1C#N)C(=O)N(OS(=O)(=O)c1ccccc1)C2=O quantity_measured=TGI recorded_result="> 100 µM"
compound=S=c1[nH]c(=S)c2sc(=S)n(-c3ccccc3)c2[nH]1 quantity_measured=TGI recorded_result="> 100 µM"
compound="CC1(CO)OC1COCc1ccccc1 (stereo unspecified)" quantity_measured=TGI recorded_result="> 100 µM"

I would be grateful if you could share the reported TGI for "O=C1C(Cl)=C(Oc2ccc([N+](=O)[O-])cc2)C(=O)c2c(O)ccc(O)c21" .
19.2 µM

I would be grateful if you could share the reported TGI for "O=c1[nH]nc(-c2ccc([N+](=O)[O-])cc2)n1/N=C/c1ccc([N+](=O)[O-])cc1" .
> 100 µM

I would be grateful if you could share the reported TGI for CCN(CC)c1ccc2c(c1)Oc1ccc(N(C(C)=O)c3ccccc3)cc1C21OC(=O)c2ccccc21 (stereo unspecified) .
97.6 µM
